Test: yeast display, Sf9 membrane polyspecificity reagent, FACS + sequencing; frameworks hold sequencing errors
PROPERTY_MEASURED: polyreactivity (PSR sort gate)

See these solved cases before continuing.
INSERT INTO assay_data (chain, readout_value) VALUES
  ('QDQLVESGGGLVQAGGSLRLSCAASGFIFFGYAMGWYRQAPGKERELVAAITSGGSTYYADSVKGRFTISRDNAKNTVYLQMNSLKPEDTAVYYCAAVLWYGSKRYGYWGQGTQVTVSS', 'high polyreactivity'),
  ('QVQLVESGGGLVQAGGSLRLSCAASGSSFAENAMGWSRQAPGKERELVATIRSGGSTYADSVKGRFTISRDNAKKTVNLQMNILKPEDTAVYYCATDRYPHSATPGDYWGQGTQVTVSS', 'low polyreactivity'),
  ('QVQLVESGGGLVQAGGSLRLSCAASGYIFGYNAMGWYRPAPGKERELVAAISRSAGRTYYADSVKGRFTISRDNAKNTVYLQMNSLKPEDSAVYYCAAQSYWLGYEYWGQGTQVTVSS', 'high polyreactivity'),
  ('QVHLVESGAGLVQAGGSLRLSCAASGGIFWVYAMGWYRQAPGKERELGAAISNSDTSTSYADSVKGRFTISRDNAKNTVYLQMTSLKPEDTAVYYCNADSPSLSGDYWGQGTQVTVSS', 'low polyreactivity'),
  ('QVQLVESGGGLVQAGGSLRLSCAASGSIFVLNAMGLYRQAPGKERELVAGISSSGGSTYYADSVKGRFTISRDNAKNTVYLQMNSLKPEDTAVYYFAKDAGLYEGDYWGQGTQVTVSS', 'low polyreactivity');

Request: Name the recorded polyreactivity (PSR sort gate) for `QVQLVESGGGLVQAGGSLRLSCAASGSIFQPYAMGWYRQAPGKEREFVAAISRSGGITYYADSVKGRFTISRDNAKNTVYLQMNSLKPEDTAVYYCATGRQVVRSYSEGDYWGQGTQVTVSS` .
Result: low polyreactivity

Request: Could you tell me which polyreactivity (PSR sort gate) is on file for `QVQLVEAGGGLVQAGGSLRLSCAASGFIFPSYVRGWYSQAPGKERELVATISRSGGSTYYADSVKGRFTISRDNAKNTGYLQMNSLKPEDTAVYYCATRRRGPYSPYSPYDYWGQGTQVTVSS` ?
Result: high polyreactivity

Request: # polyreactivity (PSR sort gate) lookup, item `QVQLVESGGGLVQAGGSLRLSCAASGSIFPDYAMGWYRPAPGKERELVAAIDTSTTDTYYADSVKGRFTISRDNAKNTVYLQMKSQKPEDTAVYYSAADAYDDPYGFWGQGTQVTVSS`
Result: high polyreactivity

Request: What value of polyreactivity (PSR sort gate) has been reported for the following sequence? `QVQLVESGGGLVQAGGSLSLSCAASGSIFLYNAMGWYRPAPGKERELVAAISKSGGSTYYADSVKGRFTISRDNAKNTVYLQMNSLKPEDTAFYYCAAGYGRRIRYGSEYDYWGQGTQVTVSS`
Result: low polyreactivity

Request: What value of polyreactivity (PSR sort gate) has been recorded for this entry: `QVQLVESGGGLVQAGGSLRLSCAASGSNFYVYAMGCYRQAPGKERELVAAINYDSGSTYYADSVKGRFTISRDTAKNTVYLQMNSLIPEDTAVYYCGTDGVNPFYAYDYWGQGTQVTVSS`
Result: low polyreactivity

---

Experiment: yeast display, Sf9 membrane polyspecificity reagent, FACS + sequencing; frameworks hold sequencing errors
PROPERTY_MEASURED: polyreactivity (PSR sort gate)

INSERT INTO results (chain, readout_value) VALUES
  ('QVQLVESGGGLDQAGGSLRLSCAASGITFQGYAMGWYRQAPGKERELVAAINDSGSSTYYADSVKGRFTISRDNAKNTVYLQMNSLKPEDTAVYYCAAYLWFWGQGTQVTVSS', 'low polyreactivity'),
  ('QVQLVESGGGLVQAGGSLRLSCAASGGTFAYYAMGWSRQAPGKERELVAAISSGGSTNYADSVKGRFTISRDNAKNTVNLQMNSLKPEDTAGYFCAADYYGPFYGYTYDYWGQGTQVTVSS', 'low polyreactivity'),
  ('QVQLVESGGGLVQAGGSLRLSCAASGSIFRDYTMGWYRQAPGKERELVAAIRQDGGTTTYADSVKGRFTISRDNAKNTVYLQMNSLKPEDTAVYLWGQGTQVTVSS', 'low polyreactivity'),
  ('QVQLVESGGGLVQAGGSLRLSCAASGSTLRRYAMGWYRQAPGKERELVAAITSRGTDTYYADSVKGRFTISRDNAKNTVYLQMNSLKPEDTAVYYCANRRGYVYYPGYDYWGQGTQVTVSS', 'high polyreactivity');

Here is another sequence to look at.
Request: Consider the sequence shown here: `QVQLVESGGGLVQAGGSLRLTCAASGRIFPRNTMGWYRQAPGKERELVAAISVSGGSTYYADSVKGRFTNSRDNAKNTVYLQMNSLKPEDTAVYYWAARSARLEYYYWGQGTQVTVSS` What is its recorded polyreactivity (PSR sort gate)?
Result: high polyreactivity
